target: Caspase-8 (Homo sapiens); experiment: Inhibitory activity against caspase-8 (Csp-8)

| compoundSmiles | resultUnit | k3/Ki |
| --- | --- | --- |
| CC(C)[C@H](NC(=O)COc1cccc2ccccc12)C(=O)N[C@@H](CC(=O)O)C(=O)COc1ccc2oc(=O)sc2c1 | M⁻¹ s⁻¹ | 130 |
| CC(C)[C@H](NC(=O)COc1cccc2ccccc12)C(=O)N[C@@H](CC(=O)O)C(=O)COc1cccc(C(F)(F)F)c1F | M⁻¹ s⁻¹ | 1030 |
| CC(C)[C@H](NC(=O)COc1cccc2ccccc12)C(=O)N[C@@H](CC(=O)O)C(=O)COc1ccc([N+](=O)[O-])cc1F | M⁻¹ s⁻¹ | 1850 |
| CC(C)[C@H](NC(=O)COc1cccc2ccccc12)C(=O)N[C@@H](CC(=O)O)C(=O)COc1cc(F)ccc1F | M⁻¹ s⁻¹ | 483 |

###

biological target: Caspase-6 (Homo sapiens); assay: Inhibitory activity against caspase-6 (Csp-6)
observedProperty: log10 of k3/Ki (log10 of the value in M⁻¹ s⁻¹)

| compoundSmiles | assayedSystem | measuredValue |
| --- | --- | --- |
| CC(C)[C@H](NC(=O)COc1cccc2ccccc12)C(=O)N[C@@H](CC(=O)O)C(=O)COc1cccc(C(F)(F)F)c1F | Caspase-6 (Homo sapiens) | 2.83 |
| CC(C)[C@H](NC(=O)COc1cccc2ccccc12)C(=O)N[C@@H](CC(=O)O)C(=O)COc1ccc(C(N)=O)cc1 | Caspase-6 (Homo sapiens) | 2.87 |
| CC(C)[C@H](NC(=O)COc1cccc2ccccc12)C(=O)N[C@@H](CC(=O)O)C(=O)COc1ccc(F)c(F)c1 | Caspase-6 (Homo sapiens) | 1.93 |
| CC(C)[C@H](NC(=O)COc1cccc2ccccc12)C(=O)N[C@@H](CC(=O)O)C(=O)COc1ccc(C#N)cc1 | Caspase-6 (Homo sapiens) | 1.66 |
| CC(C)[C@H](NC(=O)COc1cccc2ccccc12)C(=O)N[C@@H](CC(=O)O)C(=O)COc1c(F)cc(F)cc1F | Caspase-6 (Homo sapiens) | 3.71 |
| CC(C)[C@H](NC(=O)COc1cccc2ccccc12)C(=O)N[C@@H](CC(=O)O)C(=O)COc1ccc2oc(=O)sc2c1 | Caspase-6 (Homo sapiens) | 1.91 |
| CC(C)[C@H](NC(=O)COc1cccc2ccccc12)C(=O)N[C@@H](CC(=O)O)C(=O)COc1ccc(F)c(F)c1F | Caspase-6 (Homo sapiens) | 2.40 |
| CC(C)[C@H](NC(=O)COc1cccc2ccccc12)C(=O)N[C@@H](CC(=O)O)C(=O)COc1ccc(C(F)(F)F)cc1 | Caspase-6 (Homo sapiens) | 1.89 |
| CC(C)[C@H](NC(=O)COc1cccc2ccccc12)C(=O)N[C@@H](CC(=O)O)C(=O)COC(=O)c1c(Cl)cccc1Cl | Caspase-6 (Homo sapiens) | 4.76 |
| CC(C)[C@H](NC(=O)COc1cccc2ccccc12)C(=O)N[C@@H](CC(=O)O)C(=O)COc1cc(F)cc(F)c1 | Caspase-6 (Homo sapiens) | 2.03 |
| CC(C)[C@H](NC(=O)COc1cccc2ccccc12)C(=O)N[C@@H](CC(=O)O)C(=O)COc1cccc(F)c1F | Caspase-6 (Homo sapiens) | 3.21 |
| CC(C)[C@H](NC(=O)COc1cccc2ccccc12)C(=O)N[C@@H](CC(=O)O)C(=O)COc1c(Cl)cccc1Cl | Caspase-6 (Homo sapiens) | 4.94 |
| CC(C)[C@H](NC(=O)COc1cccc2ccccc12)C(=O)N[C@@H](CC(=O)O)C(=O)COc1ccc(-c2ccccc2)cc1 | Caspase-6 (Homo sapiens) | 2.43 |
| CC(C)[C@H](NC(=O)COc1cccc2ccccc12)C(=O)N[C@@H](CC(=O)O)C(=O)COc1ccccc1[N+](=O)[O-] | Caspase-6 (Homo sapiens) | 4.03 |
| CC(C)[C@H](NC(=O)COc1cccc2ccccc12)C(=O)N[C@@H](CC(=O)O)C(=O)COc1cc(F)ccc1F | Caspase-6 (Homo sapiens) | 3.12 |
| CC(C)[C@H](NC(=O)COc1cccc2ccccc12)C(=O)N[C@@H](CC(=O)O)C(=O)COc1cc(C(F)(F)F)cc(C(F)(F)F)c1 | Caspase-6 (Homo sapiens) | 2.29 |
| CC(C)[C@H](NC(=O)COc1cccc2ccccc12)C(=O)N[C@@H](CC(=O)O)C(=O)COc1cccc(F)c1 | Caspase-6 (Homo sapiens) | 1.68 |
| CC(C)[C@H](NC(=O)COc1cccc2ccccc12)C(=O)N[C@@H](CC(=O)O)C(=O)COc1ccc([N+](=O)[O-])cc1F | Caspase-6 (Homo sapiens) | 3.25 |
| CC(C)[C@H](NC(=O)COc1cccc2ccccc12)C(=O)N[C@@H](CC(=O)O)C(=O)COc1ccc([N+](=O)[O-])cc1 | Caspase-6 (Homo sapiens) | 2.07 |
| CC(C)[C@H](NC(=O)COc1cccc2ccccc12)C(=O)N[C@@H](CC(=O)O)C(=O)COc1c(F)ccc(F)c1F | Caspase-6 (Homo sapiens) | 4.91 |
| CC(C)[C@H](NC(=O)COc1cccc2ccccc12)C(=O)N[C@@H](CC(=O)O)C(=O)COc1ccccc1 | Caspase-6 (Homo sapiens) | 3.38 |
| CC(C)[C@H](NC(=O)COc1cccc2ccccc12)C(=O)N[C@@H](CC(=O)O)C(=O)COP(=O)(c1ccccc1)c1ccccc1 | Caspase-6 (Homo sapiens) | 4.60 |
| CC(C)[C@H](NC(=O)COc1cccc2ccccc12)C(=O)N[C@@H](CC(=O)O)C(=O)COc1ccccc1C(F)(F)F | Caspase-6 (Homo sapiens) | 2.69 |
| CC(C)[C@H](NC(=O)COc1cccc2ccccc12)C(=O)N[C@@H](CC(=O)O)C(=O)COc1c(F)cccc1F | Caspase-6 (Homo sapiens) | 4.00 |
| CC(C)[C@H](NC(=O)COc1cccc2ccccc12)C(=O)N[C@@H](CC(=O)O)C(=O)COc1ccc(Oc2ccc(C(F)(F)F)cc2)cc1 | Caspase-6 (Homo sapiens) | 2.80 |
| CC(C)[C@H](NC(=O)COc1cccc2ccccc12)C(=O)N[C@@H](CC(=O)O)C(=O)COc1c(F)c(F)c(F)c(F)c1F | Caspase-6 (Homo sapiens) | 4.13 |
| CC(C)[C@H](NC(=O)COc1cccc2ccccc12)C(=O)N[C@@H](CC(=O)O)C(=O)COc1ccc(OC(F)(F)F)cc1 | Caspase-6 (Homo sapiens) | 2.89 |
| CC(C)[C@H](NC(=O)COc1cccc2ccccc12)C(=O)N[C@@H](CC(=O)O)C(=O)COc1ccc(Oc2ccccc2)cc1 | Caspase-6 (Homo sapiens) | 2.57 |
| CC(C)[C@H](NC(=O)COc1cccc2ccccc12)C(=O)N[C@@H](CC(=O)O)C(=O)COc1c(F)c(F)cc(F)c1F | Caspase-6 (Homo sapiens) | 4.90 |

###

target: Caspase-6 (Homo sapiens); experiment: Inhibitory activity against caspase-6 (Csp-6)

| compoundSmiles | resultUnit | k3/Ki |
| --- | --- | --- |
| CC(C)[C@H](NC(=O)COc1cccc2ccccc12)C(=O)N[C@@H](CC(=O)O)C(=O)COc1cc(F)c(F)cc1F | M⁻¹ s⁻¹ | 634 |
| CC(C)[C@H](NC(=O)COc1cccc2ccccc12)C(=O)N[C@@H](CC(=O)O)C(=O)COc1c(F)c(F)c(-c2c(F)c(F)c(F)c(F)c2F)c(F)c1F | M⁻¹ s⁻¹ | 27000 |
| CC(C)[C@H](NC(=O)COc1cccc2ccccc12)C(=O)N[C@@H](CC(=O)O)C(=O)COc1cc(F)cc(F)c1F | M⁻¹ s⁻¹ | 1510 |

###

target: Caspase-8 (Homo sapiens); experiment: Inhibitory activity against caspase-8 (Csp-8)
Measured k3/Ki values are reported for all entries that follow.

| compoundSmiles | k3/Ki, M⁻¹ s⁻¹ |
| --- | --- |
| CC(C)[C@H](NC(=O)COc1cccc2ccccc12)C(=O)N[C@@H](CC(=O)O)C(=O)COc1cc(F)cc(F)c1 | 154 |
| CC(C)[C@H](NC(=O)COc1cccc2ccccc12)C(=O)N[C@@H](CC(=O)O)C(=O)COc1c(F)cccc1F | 9080 |
| CC(C)[C@H](NC(=O)COc1cccc2ccccc12)C(=O)N[C@@H](CC(=O)O)C(=O)COc1ccc(F)c(F)c1 | 117 |
| CC(C)[C@H](NC(=O)COc1cccc2ccccc12)C(=O)N[C@@H](CC(=O)O)C(=O)COc1ccc([N+](=O)[O-])cc1 | 137 |
| CC(C)[C@H](NC(=O)COc1cccc2ccccc12)C(=O)N[C@@H](CC(=O)O)C(=O)COc1ccccc1F | 233 |
| CC(C)[C@H](NC(=O)COc1cccc2ccccc12)C(=O)N[C@@H](CC(=O)O)C(=O)COc1ccc(-c2ccccc2)cc1 | 1310 |
| CC(C)[C@H](NC(=O)COc1cccc2ccccc12)C(=O)N[C@@H](CC(=O)O)C(=O)COc1c(F)c(F)cc(F)c1F | 30200 |
| CC(C)[C@H](NC(=O)COc1cccc2ccccc12)C(=O)N[C@@H](CC(=O)O)C(=O)COc1cccc(F)c1 | 461 |
| CC(C)[C@H](NC(=O)COc1cccc2ccccc12)C(=O)N[C@@H](CC(=O)O)C(=O)COc1ccccc1 | 4260 |
| CC(C)[C@H](NC(=O)COc1cccc2ccccc12)C(=O)N[C@@H](CC(=O)O)C(=O)COc1ccc(OC(F)(F)F)cc1 | 2420 |
| CC(C)[C@H](NC(=O)COc1cccc2ccccc12)C(=O)N[C@@H](CC(=O)O)C(=O)COc1cccc(F)c1F | 197 |
| CC(C)[C@H](NC(=O)COc1cccc2ccccc12)C(=O)N[C@@H](CC(=O)O)C(=O)COc1c(F)c(F)c(F)c(F)c1F | 8040 |
| CC(C)[C@H](NC(=O)COc1cccc2ccccc12)C(=O)N[C@@H](CC(=O)O)C(=O)COc1ccccc1C(F)(F)F | 75 |
| CC(C)[C@H](NC(=O)COc1cccc2ccccc12)C(=O)N[C@@H](CC(=O)O)C(=O)COc1ccc(Oc2ccccc2)cc1 | 668 |
| CC(C)[C@H](NC(=O)COc1cccc2ccccc12)C(=O)N[C@@H](CC(=O)O)C(=O)COc1ccc(F)cc1F | 628 |

Source of measurements: ChEMBL document CHEMBL1136305
